Just for reference, patent US20160039842A1 is where these values come from.

# TEST_TARGET: BRD4(BD1) (Homo sapiens, UniProt O60885)
# EXPERIMENTAL_PROTOCOL: In Vitro Bromodomain Inhibition Assay (AlphaLISA, H4-tetraacetyl peptide)
# STUDY_CONDITIONS: His-tagged BRD4(BD1) 200 nM, biotinylated H4-tetraacetyl peptide 200 nM, room temperature
MEASURE: IC50

Look over these answered cases.
{"columns": ["COMPOUND", "IC50"],
 "data": [
  ["COCc1nc2cc(-c3c(C)noc3C)c(OC)cc2c2c1oc(=O)n2[C@H](C)c1ccccc1", "< 1 µM"],
  ["COc1cc2c(cc1-c1c(C)noc1C)ncc1oc(=O)n(Cc3ccccc3)c12", "< 1 µM"],
  ["COc1cc2c(cc1-c1c(C)noc1C)nc(CO)c1oc(=O)n(Cc3ccccc3)c12", "< 1 µM"],
  ["CCNCc1nc2cc(-c3c(C)noc3C)c(OC)cc2c2c1oc(=O)n2Cc1ccccc1", "< 1 µM"]
]}

I'd like to know its IC50. The compound in question is `COc1cc2c(cc1-c1c(C)noc1C)ncc1oc(=O)n([C@H](C)c3cccc(C#N)c3)c12` < 1 µM

Fill blank: measured IC50 of the compound `COc1cc2c(cc1-c1c(C)noc1C)nc(C)c1oc(=O)n([C@H](C)c3ccccc3)c12` is ____. < 1 µM

GET /values?readout=IC50&item= `CCOC(=O)c1nc2cc(-c3c(C)noc3C)c(OC)cc2c2c1oc(=O)n2[C@H](C)c1ccccc1` < 1 µM

Quick one: IC50 for `COc1cc2c(cc1-c1c(C)noc1C)ncc1oc(=O)n(Cc3ccc(C)cc3)c12` ? < 1 µM

Recorded IC50 of `COc1cc2c(cc1-c1c(C)noc1C)ncc1oc(=O)n([C@H](C)c3ccc(Cl)cc3)c12` , please. < 1 µM

Any idea what IC50 was measured for `COc1cc2c(cc1-c1c(C)noc1C)nc(CO)c1oc(=O)n([C@H](C)c3ccccc3)c12` ? < 1 µM
